Hi there, I'd appreciate the recorded Luciferase assay (EC50) for every entry that follows.
target desc: human CD28 (human, UniProt P10747 19-220)
method description: cell-based or functional assay
Answer shape: numeric part, then the unit.

**Q:** For the binder shown here, 1h-99-2 (other) VH: EVQLLESGGGLVQPGGSLRLSCAASGFTFDSANMSWVRQAPGKGLEWVSWIEDTGTQTFYADSVKGRFTISRDNSKNTLYLQMNSLRAEDTAVYYCAKSPFGPLYGFDYRGQGTLVTVSS , give the reported Luciferase assay (EC50).
**A:** 17 nM

**Q:** Another: 1h-70 (other) VL: DIQMTQSPSSLSASVGDRVTITCRASQSIGTGLRWYQQKPGKAPMLLIYRASILQSGVPSRFSGGGSGTDFTLTISSLQPEDFATYYCQQTWYRPYTFGQGTKVEIKR
**A:** 6600 nM

**Q:** Another: 1h-239-807 (other) VL: DIQMTQSPSSLSASVGDRVTITCRASRAIWPFLEWYQQKPGKAPKLLIYFTSRLQSGVPSRFSGSGSGTDFTLTISSLQPEDFATYYCLQNVTNPATFSQGTKVEIKR
**A:** 7 nM

**Q:** Another: 1h-99-2114 (other) VH: EVQLLESGGGLVQPGGSLRLSCAASGFTFKDKNMSWARQAPGKGLEWVSWIEAIGVQTFYADSVKGRFTISRDNSKNTLYLQMNSLRAEDTAVYYCAKSPFGPLYGFDYRGQGTLVTVSS
**A:** 4 nM
